testedSystem: sChoK (Streptococcus pneumoniae)
assayDetails: Substrate-inhibitor competition (competitivity) by LDH/PK
Type: biochemical
conditionParameters: Ki, (A) inhibitor vs ATP
# maps each entry to its pKi
// returns pKi (minus log10 of molar concentration), number only

CN(c1ccc(Cl)cc1)c1cc[n+](Cc2ccc(-c3ccc(C[n+]4ccc(N(C)c5ccc(Cl)cc5)c5ccccc54)cc3)cc2)c2ccccc12.[Br-].[Br-] [RSM-932A]; 4.45

Now take the following molecule into account.
## Task Recorded pKi for CN(C)c1cc[n+](Cc2ccc(CCCCc3ccc(C[n+]4ccc(N(C)C)cc4)cc3)cc2)cc1 [MN58b] with sChoK (Streptococcus pneumoniae), please?
## Result 3.74

====

testedSystem: sChoK (Streptococcus pneumoniae, UniProt Q8DPI4)
Sequence (Q8DPI4 entry or part of it): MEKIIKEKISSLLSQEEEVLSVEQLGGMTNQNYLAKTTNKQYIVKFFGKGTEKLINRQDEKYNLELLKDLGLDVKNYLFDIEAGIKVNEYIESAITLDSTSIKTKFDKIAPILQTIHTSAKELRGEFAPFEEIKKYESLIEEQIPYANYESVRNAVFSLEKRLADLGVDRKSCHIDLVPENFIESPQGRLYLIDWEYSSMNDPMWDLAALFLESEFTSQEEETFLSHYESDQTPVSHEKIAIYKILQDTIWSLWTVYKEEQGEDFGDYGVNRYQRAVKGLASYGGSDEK
assayDetails: IC50 by LDH/PK with purified recombinant sChoK
Type: biochemical
property: pIC50
// returns pIC50 (minus log10 of molar concentration), number only

CN(C)c1cc[n+](Cc2ccc(CCCCc3ccc(C[n+]4ccc(N(C)C)cc4)cc3)cc2)cc1 [MN58b]; 3.19

Now take the following compound into account.
## Task For the compound CN(c1ccc(Cl)cc1)c1cc[n+](Cc2ccc(-c3ccc(C[n+]4ccc(N(C)c5ccc(Cl)cc5)c5ccccc54)cc3)cc2)c2ccccc12.[Br-].[Br-] [RSM-932A] , what pIC50 is on record?
## Result 4.66

====

testedSystem: sChoK (Streptococcus pneumoniae, UniProt Q8DPI4)
assayDetails: IC50 by colorimetric method with BL21 (DE3) extracts expressing recombinant sChoK
Type: biochemical
# maps each entry to its IC50
Use µM as the unit, but write only the number.

CN(c1ccc(Cl)cc1)c1cc[n+](Cc2ccc(-c3ccc(C[n+]4ccc(N(C)c5ccc(Cl)cc5)c5ccccc54)cc3)cc2)c2ccccc12.[Br-].[Br-] [RSM-932A]; 0.5

Now take the following molecule into account.
## Task For the molecule CN(C)c1cc[n+](Cc2ccc(CCCCc3ccc(C[n+]4ccc(N(C)C)cc4)cc3)cc2)cc1 [MN58b] , what IC50 is on record?
## Result 225
